# Tested on: SW-620 colon
# TEST_PROTOCOL: NCI tumour cell line growth inhibition, 48 h; in the data active means GI50 below about 0.43 µM; inactive means the rest
Result category, one only: active, inactive

Known results for compounds:
1) Cc1ccc2ccc3c4ccccc4ccc3c2c1
inactive
2) Cn1cc(-c2ccc3ncc(-c4ccc(CC(=O)Nc5cc(C(C)(C)C)nn5C)cc4)cc3c2)cn1
inactive
3) O=c1[nH]c2ccccc2cc1-c1nnc(Cc2ccccc2)o1
inactive
4) COc1ccc(-c2cnc(-c3ccncc3-c3cccc(OC)c3)o2)cc1
active
5) O=c1[nH]c(=S)[nH]c(O)c1/C=C1\C=Nc2ccccc21
inactive
6) COC(=O)c1ccc(NC(N)=NCCC(C)(C)c2ccc(C(F)(F)F)cc2)nc1
inactive

Any idea what this test logged for C/C(=C/CCC(C)[C@@H]1CC[C@]2(C)C3=C(CC[C@@]12C)[C@@]1(C)CCC(=O)C(C)(C)[C@@H]1CC3)C(=O)O (stereo not given in full) ?
inactive

Any idea what this test logged for O=C(O)c1ccccc1NCn1nc(-c2ccccc2O)oc1=S ?
inactive

Any idea what this test logged for CC[n+]1c(-c2ccccc2)c2cc(N)ccc2c2ccc(N)cc21 ?
inactive

Any idea what this test logged for CCc1ccc(Oc2c(-c3ccc(OCc4ccc(Cl)cc4)cc3O)nn(C)c2C(F)(F)F)cc1 ?
active

====

# Tested on: UACC-257 melanoma
# TEST_PROTOCOL: NCI tumour cell line growth inhibition, 48 h; in the data active = GI50 below about 0.43 µM; inactive = the rest
Result category, one only: active, inactive

Known results for compounds:
1) Nc1nc(Cl)c2ncn(Cc3ccc(C45CC6CC(CC(C6)C4)C5)c(OCc4cc(F)c(F)cc4F)c3)c2n1
inactive
2) C/C(=C/CCC(C)[C@@H]1CC[C@]2(C)C3=C(CC[C@@]12C)[C@@]1(C)CCC(=O)C(C)(C)[C@@H]1CC3)C(=O)O (stereo not given in full)
inactive
3) CN(C)CCNC(=O)Nc1ccc(N(C)c2ccnc(Nc3ccc(CS(C)(=O)=O)cc3)n2)cc1
inactive
4) COC(=O)c1ccc(NC(N)=NCCC(C)(C)c2ccc(C(F)(F)F)cc2)nc1
inactive
5) CCOC(=O)c1cn(C)c2c(OC)c3ccccc3c(OC)c2c1=O
inactive
6) CCN1C(=O)N(CC)C2C1NC(=S)N2/N=C/C=C/c1ccccc1 (stereo not given)
inactive
7) NC(=O)c1nc(-c2c(F)cccc2Cl)oc1Nc1ccc(C(=O)N2CCOCC2)cc1
inactive
8) N#Cc1cc(F)cc(Oc2ccc(S(=O)(=O)C(F)F)c3c2CC(F)(F)[C@H]3O)c1
inactive
9) C#COc1cccc(Nc2ncnc3cc(NC(=O)[C@@H](C)Cl)ccc23)c1
inactive
10) Cn1cc(-c2ccc3ncc(-c4ccc(CC(=O)Nc5cc(C(C)(C)C)nn5C)cc4)cc3c2)cn1
inactive

Any idea what this test logged for O=C(Nc1ccc(-n2cc(-c3ccncc3)c(-c3ccc(O)c(Cl)c3)n2)cc1)Nc1cc(C(F)(F)F)cc(C(F)(F)F)c1 ?
inactive

Any idea what this test logged for CC[n+]1c(-c2ccccc2)c2cc(N)ccc2c2ccc(N)cc21 ?
inactive

Any idea what this test logged for O=C(CI)NC(=O)NC(=O)NCc1ccccc1 ?
inactive

====

# Tested on: T-47D breast
# TEST_PROTOCOL: NCI tumour cell line growth inhibition, 48 h
We begin with a simple list: items and their reported TGI.

Below: 4 compounds and their reported TGI.
1) COc1ccc2oc(=O)c(-c3cc4c(c(C)n3)c(=O)oc3ccc(OC)cc34)cc2c1
> 100 µM
2) CCNC(=S)N/N=C(/C)c1cccc(/C(C)=N\NC(=S)NCC)n1
> 45.4 µM
3) OCCNc1nc2ccccc2c2[nH]c3ccccc3c12
2.29 µM
4) Nc1c(C(=O)O)c2ccc([N+](=O)[O-])cc2c(=O)n1-c1nc2ccccc2s1
> 100 µM

For CC(=O)c1c(-c2ccc(Cl)cc2)c(C#N)c(=S)n(C2OC(CO)C(O)C(O)C2O)c1C (stereo not given) , what is its reported TGI?
> 100 µM

====

# Tested on: ACHN renal
# TEST_PROTOCOL: NCI tumour cell line growth inhibition, 48 h
MEASURE_NAME: TGI

Below: 3 compounds and their reported TGI.
1) O=C(Nc1ccccc1C(=O)NC(=O)c1ccccc1NC(=O)c1ccccc1)c1ccccc1
36.3 µM
2) CC(C)OC(=O)C(NC(=O)C(CC(=O)OCc1ccccc1)NC(=O)OCc1ccccc1)NC(=O)C1C(C)(C)CCC1(C)C (stereo not drawn)
14.7 µM
3) C/C(CCN(C)C)=N/O
22.3 µM

For O=C1C=CC2(CCC23C=CC(=O)O3)O1 (stereo not drawn) , what is its reported TGI?
> 100 µM

For Cc1cc(OC2OC(CO)C(O)C(O)C2O)ccc1O (stereo not drawn) , what is its reported TGI?
> 100 µM

For CN1CCCc2nc3ccccc3n2C1 , what is its reported TGI?
> 100 µM

For CC(C)(C)C(=O)c1c(O)c2ccccc2c2ccccc2c1=O , what is its reported TGI?
> 100 µM

For Cc1ccc2ccc3c4ccccc4ccc3c2c1 , what is its reported TGI?
> 100 µM

====

# System: NCI-H522 lung
# TEST_PROTOCOL: NCI tumour cell line growth inhibition, 48 h; in the data active means GI50 below about 0.43 µM; inactive means the rest
Result category, one only: class 1 (active), class 0 (inactive)

Known results for compounds:
1) Oc1cn(-c2ccc(Cl)cc2)nc1-c1n[nH]c(=S)n1-c1ccc(F)cc1
class 0
2) CCN(CC)CCCC(Nc1c2ccc(Cl)cc2nc2ccc(OC)cc12)c1ccc(Cl)cc1 (stereo unspecified)
class 0
3) OCC1OC(OC2(CO)OC(CO)C(O)C2O)C(O)C(O)C1O (stereo unspecified)
class 0
4) COc1ccc(-c2cnc(-c3ccncc3-c3cccc(OC)c3)o2)cc1
class 1
5) C#COc1cccc(Nc2ncnc3cc(NC(=O)[C@@H](C)Cl)ccc23)c1
class 0

Field: next compound
Any idea what this test logged for O=C(Nc1ccc(-n2cc(-c3ccncc3)c(-c3ccc(Cl)c(O)c3)n2)cc1)c1cc(C(F)(F)F)cc(C(F)(F)F)c1 ?
class 0

====

We begin with a simple list: items and their reported TGI.
# Tested on: HCT-15 colon
# TEST_PROTOCOL: NCI tumour cell line growth inhibition, 48 h
Give a bare numeral; the unit µM is implied.

Below: 3 compounds and their reported TGI.
1) BrC1(c2ccccc2)C[n+]2c(-c3ccccc3)cc(-c3ccccc3)cc2-c2ccccc21 (centres undefined)
12
2) C=C1C(=O)O[C@@H]2C[C@@]3(C)[C@H](O)CCC(=C)[C@@H]3C[C@H]12
35.1
3) Nc1ncnc2c1c(-c1ccc(Oc3ccccc3)cc1)nn2CC1SSCC1O (centres undefined)
9.88

Attention now turns to another entry.
Form field: TGI recorded for O=c1[nH]c2ccccc2cc1-c1nnc(Cc2ccccc2)o1 with HCT-15 colon (enter value)
13.5

====

We begin with a simple list: items and their reported TGI.
# Test system: SK-MEL-28 melanoma
# TEST_PROTOCOL: NCI tumour cell line growth inhibition, 48 h

Below: 10 compounds and their reported TGI.
1) O=[N+]([O-])/C=C/c1ccc2ccccc2c1
4.65 µM
2) O=c1c2ccccc2nc(-c2cccc(Cl)c2)n1NC1OC(CO)C(O)C(O)C1O (stereo unspecified)
> 100 µM
3) COc1ccc(C(=CCC(C)C2CCC3[C@@H]4C(OC(C)=O)CC5CC(OC(C)=O)CC[C@]5(C)C4CC(OC(C)=O)[C@]23C)c2ccc(OC)cc2)cc1 (stereo partly specified)
> 100 µM
4) OC1=CN=C(c2ccccc2)Oc2ccccc21
> 100 µM
5) CC(=O)O[C@H]1CC[C@@H](OC(C)=O)[C@H]2[C@H](O)[C@H](O)[C@@H]1n1c(=O)n(-c3ccccc3)c(=O)n12
> 100 µM
6) CC(=O)OC12c3ccccc3C(c3ccccc31)C1C(=O)N(N=C(C)C)C(=O)C12 (stereo unspecified)
> 100 µM
7) N#CN1CC[C@H](C(=O)Nc2ncc(-c3ccccc3)s2)C1
3.01 µM
8) C/C(=C/CCC(C)[C@@H]1CC[C@]2(C)C3=C(CC[C@@]12C)[C@@]1(C)CCC(=O)C(C)(C)[C@@H]1CC3)C(=O)O (stereo partly specified)
2.82 µM
9) Nc1nc(Cl)c2ncn(Cc3ccc(C45CC6CC(CC(C6)C4)C5)c(OCc4cc(F)c(F)cc4F)c3)c2n1
26.3 µM
10) Nc1ncnc2c1c(-c1ccc(Oc3ccccc3)cc1)nn2CC1SSCC1O (stereo unspecified)
0.92 µM

Attention now turns to another entry.
Form field: TGI recorded for Cc1ccc(S(=O)(=O)N/N=c2/sc3ccccc3n2C)cc1 with SK-MEL-28 melanoma (enter value)
> 100 µM

====

# System: RXF 393 renal
# TEST_PROTOCOL: NCI tumour cell line growth inhibition, 48 h
We begin with a simple list: items and their reported TGI.

Below: 5 compounds and their reported TGI.
1) Cn1cc(-c2ccc3ncc(-c4ccc(CC(=O)Nc5cc(C(C)(C)C)nn5C)cc4)cc3c2)cn1
> 20 µM
2) COC(=O)CCC(C)[C@H]1CCC2C3CC[C@@H]4CC5(CC[C@]4(C)C3C[C@H](OC(C)=O)[C@@]21C)OOC1(CCCCC1)OO5 (stereo partly drawn)
> 100 µM
3) Nc1ncnc2c1c(-c1ccc(Oc3ccccc3)cc1)nn2CC1SSCC1O (stereo not drawn)
9.62 µM
4) CCCCCCCCCCCCOCC(COP(=O)(O)OCCN=[N+]=[N-])OC(=O)CCCCCCCCCCC (stereo not drawn)
> 100 µM
5) COc1c(OC2OC(CO)C(O)C(O)C2O)cc2c(c1OC)-c1ccc(OC)c(=O)cc1C(NC(C)=O)CC2 (stereo not drawn)
> 100 µM

For O=C(O)c1ccccc1C(=O)c1ccco1 , what is its reported TGI?
> 100 µM

For CC(C)(C)OC(=O)N[C@H]1CC(=O)c2ccccc2N(CC(=O)O)C1=O , what is its reported TGI?
> 100 µM

For CCOC(=O)[C@@H](C)C[C@H](Cc1ccccc1)NC(=O)c1csc([C@@H](C[C@H](C(C)C)N(C)C(=O)CNC(=O)[C@H]2CCCCN2C)OC(C)=O)n1 , what is its reported TGI?
4.62 µM
